Entries annotated with measured inhibition at 10 µM
# Test system: MDA-MB231 Cell line
# protocolDetails: MTT cell proliferation assay, MDA-MB231
# Type: cell-based
# conditionParameters: Homo sapiens, MDA-MB-231, 120 h, 5 days
quantity: inhibition at 10 µM

compound=Cc1cccc(OC2CCN(c3nc(N4CCOCC4)nc(-n4c(C(F)F)nc5ccccc54)n3)CC2)c1 resultvalue="30 to 50%"
compound=Cc1ccccc1NC1CCN(c2nc(N3CCOCC3)nc(-n3c(C(F)F)nc4ccccc43)n2)CC1 resultvalue="30 to 50%"
compound=FC(F)c1nc2ccccc2n1-c1nc(N2CCOCC2)nc(N2CCC(Oc3ccccc3Cl)CC2)n1 resultvalue="30 to 50%"
compound=Cc1ccc(NC2CCN(c3nc(N4CCOCC4)nc(-n4c(C(F)F)nc5ccccc54)n3)CC2)cc1 resultvalue="30 to 50%"
compound="FC(F)c1nc2ccccc2n1-c1nc(N2CCOCC2)nc(N2CCOCC2)n1 [ZSTK474, reference compound]" resultvalue="> 50%"
compound=O=C(N(c1ccc(F)cc1)c1nc(N2CCOCC2)nc(N2CCC(Oc3ccccc3)CC2)n1)C(F)(F)F resultvalue="30 to 50%"
compound=COc1ccc(NC2CCN(c3nc(N4CCOCC4)nc(-n4c(C(F)F)nc5ccccc54)n3)CC2)cc1 resultvalue="30 to 50%"
compound=O=C(N(c1ccccc1)c1nc(N2CCOCC2)nc(N2CCC(Oc3ccc(OC(F)(F)F)cc3)CC2)n1)C(F)(F)F resultvalue="> 50%"
compound=FC(F)c1nc2ccccc2n1-c1nc(N2CCOCC2)nc(N2CCC(Oc3ccc(Cl)cc3)CC2)n1 resultvalue="30 to 50%"
compound=FC(F)c1nc2ccccc2n1-c1nc(N2CCOCC2)nc(N2CCC(Nc3ccc(Cl)c(Cl)c3)CC2)n1 resultvalue="> 50%"
compound=Fc1ccc(OC2CCN(c3nc(N4CCOCC4)nc(-n4c(C(F)F)nc5ccccc54)n3)CC2)cc1 resultvalue="> 50%"
compound=Fc1ccccc1NC1CCN(c2nc(N3CCOCC3)nc(-n3c(C(F)F)nc4ccccc43)n2)CC1 resultvalue="30 to 50%"
compound=Cc1ccccc1OC1CCN(c2nc(N3CCOCC3)nc(-n3c(C(F)F)nc4ccccc43)n2)CC1 resultvalue="30 to 50%"
compound=COc1ccc(OC2CCN(c3nc(N4CCOCC4)nc(-n4c(C(F)F)nc5ccccc54)n3)CC2)cc1 resultvalue="> 50%"

---

# Test system: MCF-7 Cell line
# protocolDetails: MTT cell proliferation assay, MCF-7
# Type: cell-based
# conditionParameters: Homo sapiens, MCF7, 120 h, 5 days
quantity: inhibition at 10 µM

molsmiles=O=C(N(c1ccc(F)cc1)c1nc(N2CCOCC2)nc(N2CCC(Oc3ccccc3)CC2)n1)C(F)(F)F quantity="inhibition at 10 µM" resultvalue="30 to 50%"
molsmiles=FC(F)c1nc2ccccc2n1-c1nc(N2CCOCC2)nc(N2CCC(Nc3ccc(Br)cc3)CC2)n1 quantity="inhibition at 10 µM" resultvalue="> 50%"
molsmiles=O=C(N(c1ccccc1)c1nc(N2CCOCC2)nc(N2CCC(Oc3ccc(OC(F)(F)F)cc3)CC2)n1)C(F)(F)F quantity="inhibition at 10 µM" resultvalue="> 50%"
molsmiles=Fc1ccc(OC2CCN(c3nc(N4CCOCC4)nc(-n4c(C(F)F)nc5ccccc54)n3)CC2)cc1 quantity="inhibition at 10 µM" resultvalue="> 50%"
molsmiles=FC(F)c1nc2ccccc2n1-c1nc(N2CCOCC2)nc(N2CCC(Nc3ccc(C(F)(F)F)cc3)CC2)n1 quantity="inhibition at 10 µM" resultvalue="30 to 50%"
molsmiles=FC(F)c1nc2ccccc2n1-c1nc(N2CCOCC2)nc(N2CCC(Oc3ccc(Cl)cc3)CC2)n1 quantity="inhibition at 10 µM" resultvalue="> 50%"
molsmiles=FC(F)c1nc2ccccc2n1-c1nc(N2CCOCC2)nc(N2CCC(Oc3ccccc3Cl)CC2)n1 quantity="inhibition at 10 µM" resultvalue="> 50%"
molsmiles=Cc1ccc(NC2CCN(c3nc(N4CCOCC4)nc(-n4c(C(F)F)nc5ccccc54)n3)CC2)cc1 quantity="inhibition at 10 µM" resultvalue="> 50%"
molsmiles=FC(F)c1nc2ccccc2n1-c1nc(N2CCOCC2)nc(N2CCC(Nc3ccc(OC(F)(F)F)cc3)CC2)n1 quantity="inhibition at 10 µM" resultvalue="30 to 50%"
